biological target: native human MET on living cells (human, UniProt P08581 25-1390); experiment: cell-based or functional assay
Sequence (P08581 25-1390): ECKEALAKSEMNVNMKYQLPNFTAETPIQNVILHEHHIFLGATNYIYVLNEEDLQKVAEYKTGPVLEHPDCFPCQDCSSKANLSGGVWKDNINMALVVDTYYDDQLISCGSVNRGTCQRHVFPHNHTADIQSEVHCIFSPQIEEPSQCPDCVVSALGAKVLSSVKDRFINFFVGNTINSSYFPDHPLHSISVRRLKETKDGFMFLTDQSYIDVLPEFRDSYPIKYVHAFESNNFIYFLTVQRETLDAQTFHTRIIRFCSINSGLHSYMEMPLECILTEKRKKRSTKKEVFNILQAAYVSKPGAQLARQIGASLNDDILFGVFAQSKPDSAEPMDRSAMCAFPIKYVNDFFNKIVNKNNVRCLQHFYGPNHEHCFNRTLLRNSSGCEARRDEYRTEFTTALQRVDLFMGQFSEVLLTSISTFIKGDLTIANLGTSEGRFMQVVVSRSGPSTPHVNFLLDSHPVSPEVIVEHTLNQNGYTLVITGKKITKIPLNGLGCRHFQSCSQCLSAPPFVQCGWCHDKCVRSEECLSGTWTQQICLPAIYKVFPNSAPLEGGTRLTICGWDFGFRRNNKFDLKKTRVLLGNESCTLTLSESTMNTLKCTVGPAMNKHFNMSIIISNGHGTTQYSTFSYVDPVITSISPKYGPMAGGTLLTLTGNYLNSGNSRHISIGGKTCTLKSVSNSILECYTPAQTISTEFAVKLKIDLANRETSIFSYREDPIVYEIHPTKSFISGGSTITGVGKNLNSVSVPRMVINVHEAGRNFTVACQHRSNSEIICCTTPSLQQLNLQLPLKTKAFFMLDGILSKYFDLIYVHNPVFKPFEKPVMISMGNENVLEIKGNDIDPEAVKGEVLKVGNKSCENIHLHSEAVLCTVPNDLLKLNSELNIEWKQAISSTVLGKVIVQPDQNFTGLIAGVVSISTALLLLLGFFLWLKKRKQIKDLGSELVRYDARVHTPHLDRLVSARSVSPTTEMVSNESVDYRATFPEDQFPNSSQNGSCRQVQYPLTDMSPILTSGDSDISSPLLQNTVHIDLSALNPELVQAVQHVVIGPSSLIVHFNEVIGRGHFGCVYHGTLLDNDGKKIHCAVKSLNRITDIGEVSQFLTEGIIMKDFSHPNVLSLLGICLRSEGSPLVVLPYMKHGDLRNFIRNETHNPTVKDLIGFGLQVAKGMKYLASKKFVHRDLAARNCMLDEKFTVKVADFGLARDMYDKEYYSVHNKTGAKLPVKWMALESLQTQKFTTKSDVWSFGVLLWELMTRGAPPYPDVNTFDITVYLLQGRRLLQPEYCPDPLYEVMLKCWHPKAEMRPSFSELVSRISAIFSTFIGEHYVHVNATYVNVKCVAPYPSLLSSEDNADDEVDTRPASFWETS
Assay endpoint: branches per spheroid, LOC cells, 0.5 nM (branches)

| Binder | Assay endpoint | Recorded result |
| --- | --- | --- |
| 71G3 chimeric llama-human IgG1 mAb (antibody, V domains shown, llama VH on human IgG1 CH1-CH2-CH3, llama VL on human lambda CL) VH: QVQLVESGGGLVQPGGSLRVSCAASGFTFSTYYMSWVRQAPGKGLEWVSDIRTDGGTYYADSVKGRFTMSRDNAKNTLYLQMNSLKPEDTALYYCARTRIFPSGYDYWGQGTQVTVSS VL: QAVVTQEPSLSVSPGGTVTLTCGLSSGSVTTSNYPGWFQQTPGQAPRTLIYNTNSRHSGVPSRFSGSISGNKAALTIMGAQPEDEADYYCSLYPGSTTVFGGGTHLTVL | branches per spheroid, LOC cells, 0.5 nM | 13.7 |
| 71D4 chimeric llama-human IgG1 mAb (antibody, V domains shown, llama VH on human IgG1 CH1-CH2-CH3, llama VL on human lambda CL) VH: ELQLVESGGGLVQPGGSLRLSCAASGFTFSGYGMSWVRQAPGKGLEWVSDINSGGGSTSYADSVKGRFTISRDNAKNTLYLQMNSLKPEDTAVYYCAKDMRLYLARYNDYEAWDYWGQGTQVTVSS VL: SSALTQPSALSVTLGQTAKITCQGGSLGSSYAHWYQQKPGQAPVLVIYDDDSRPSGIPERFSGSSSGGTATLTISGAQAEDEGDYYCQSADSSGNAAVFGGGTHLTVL | branches per spheroid, LOC cells, 0.5 nM | 9 |
| 76G7 chimeric llama-human IgG1 mAb (antibody, V domains shown, llama VH on human IgG1 CH1-CH2-CH3, llama VL on human lambda CL) VH: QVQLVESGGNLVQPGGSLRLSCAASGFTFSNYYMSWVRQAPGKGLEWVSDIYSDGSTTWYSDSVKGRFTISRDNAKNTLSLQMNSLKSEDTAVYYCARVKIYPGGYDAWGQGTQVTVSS VL: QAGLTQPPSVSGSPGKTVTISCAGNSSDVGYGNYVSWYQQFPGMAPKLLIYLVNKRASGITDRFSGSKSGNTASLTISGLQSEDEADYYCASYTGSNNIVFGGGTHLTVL | branches per spheroid, LOC cells, 0.5 nM | 6.7 |
| 71C3 chimeric llama-human IgG1 mAb (antibody, V domains shown, llama VH on human IgG1 CH1-CH2-CH3, llama VL on human lambda CL) VH: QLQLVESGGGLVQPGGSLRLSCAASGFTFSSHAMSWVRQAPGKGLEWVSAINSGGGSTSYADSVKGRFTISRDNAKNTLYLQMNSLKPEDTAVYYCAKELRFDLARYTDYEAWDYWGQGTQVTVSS VL: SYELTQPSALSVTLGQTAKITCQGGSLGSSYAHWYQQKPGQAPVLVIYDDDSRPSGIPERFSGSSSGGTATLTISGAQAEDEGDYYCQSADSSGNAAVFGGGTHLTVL | branches per spheroid, LOC cells, 0.5 nM | 8.7 |
| 74C8 chimeric llama-human IgG1 mAb (antibody, V domains shown, llama VH on human IgG1 CH1-CH2-CH3, llama VL on human lambda CL) VH: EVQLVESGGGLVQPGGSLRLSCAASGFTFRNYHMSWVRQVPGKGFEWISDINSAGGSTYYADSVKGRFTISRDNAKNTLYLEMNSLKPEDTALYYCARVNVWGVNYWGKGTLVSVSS VL: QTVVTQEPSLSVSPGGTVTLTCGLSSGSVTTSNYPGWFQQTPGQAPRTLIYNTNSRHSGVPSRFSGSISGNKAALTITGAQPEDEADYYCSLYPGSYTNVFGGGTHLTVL | branches per spheroid, LOC cells, 0.5 nM | 10.3 |
